# System: Escherichia coli NIHJ
Counter-ions that a name gives are not always drawn.
The compounds listed here are annotated with their MIC.
Express it in µg/mL; write the number only.

Use the examples below as a reference point.
CCOC(=O)Oc1c(C(=O)NC(C(=O)N[C@@H]2C(=O)N3[C@@H]2SC(C)(C)[C@@H]3C(=O)O)c2cccc(Cl)c2)cnc2cccnc12 (stereo partly shown)    1.56
CC1(C)SC2C(NC(=O)C(NC(=O)c3cnc4scnc4c3O)c3cccc(N)c3)C(=O)N2C1C(=O)O (stereo not shown)    1.56
CC1(C)SC2C(NC(=O)C(NC(=O)c3cnc4c5c(ccc4c3O)CCC5)c3cccc(N)c3)C(=O)N2C1C(=O)O (stereo not shown)    3.13
CC1(C)S[C@@H]2[C@H](NC(=O)[C@H](NC(=O)c3cnc4cccnc4c3O)c3ccc(N)cc3)C(=O)N2[C@H]1C(=O)O [Example 2, sodium salt]    0.78

Next item in the queue.
// sample COc1ccc2ncc(C(=O)NC(C(=O)N[C@@H]3C(=O)N4[C@@H]3SC(C)(C)[C@@H]4C(=O)O)c3cccc(N)c3)c(O)c2n1 (stereo partly shown) , its MIC was 0.78
